test system: Cerebellum; assay: Biodistribution in NMRI mouse cerebellum at 37 MBq/mL, iv after 60 mins postinjection assessed per gram of tissue by gamma counting; format: ADME, organism-based; conditions: in vivo, 1 h
OBSERVABLE: Drug uptake (% ID/g)

Solved cases (2 shown):
COMPOUND	VALUE_REPORTED
[11CH3]Nc1ccc(-c2nc3cccc(O)c3s2)cc1	0.1
[11CH3]Nc1ccc(-c2nc3cc(O)ccc3s2)cc1	0.08

a = [11CH3]Nc1ccc(-c2nc3c(O)cccc3s2)cc1
b = CNc1ccc(-c2nc3ccc(O)cc3s2)cc1 [PITTSBURGH COMPOUND B UNLABELLED]
Incoming: Between a and b , whose measured Drug uptake reads higher? Respond using the label that marks the chosen record.
Outgoing: a

----------
tested on: Blood; assay: Biodistribution in NMRI mouse blood at 37 MBq/mL, iv after 60 mins postinjection by gamma counting; assay type: ADME, organism-based; conditions: in vivo, 1 h
OBSERVABLE: Drug uptake (%ID)

Solved cases (2 shown):
COMPOUND	STUDY_SYSTEM	Drug uptake [%ID]
[11CH3]Nc1ccc(-c2nc3cccc(O)c3s2)cc1	Blood	1.2
[11CH3]Nc1ccc(-c2nc3c(O)cccc3s2)cc1	Blood	2.3

A = CNc1ccc(-c2nc3ccc(O)cc3s2)cc1 [PITTSBURGH COMPOUND B UNLABELLED]
B = [11CH3]Nc1ccc(-c2nc3cc(O)ccc3s2)cc1
Incoming: Select the item whose Drug uptake value is smaller, choosing between A and B . Respond using the label that marks the chosen record.
Outgoing: B

----------
tested on: Kidney; assay: Biodistribution in NMRI mouse kidney at 37 MBq/mL, iv after 2 mins postinjection assessed per gram of tissue by gamma counting; assay type: ADME, organism-based; settings: in vivo
OBSERVABLE: Drug uptake (% ID/g)

COMPOUND	STUDY_SYSTEM	VALUE_REPORTED
[11CH3]Nc1ccc(-c2nc3c(O)cccc3s2)cc1	Kidney	19.4
CNc1ccc(-c2nc3ccc(O)cc3s2)cc1 [PITTSBURGH COMPOUND B UNLABELLED]	Kidney	19.9
[11CH3]Nc1ccc(-c2nc3cc(O)ccc3s2)cc1	Kidney	14.2
[11CH3]Nc1ccc(-c2nc3cccc(O)c3s2)cc1	Kidney	16.9

----------
Record: Ki reported on Amyloid-beta precursor protein (Homo sapiens).
Sequence (P05067 whole entry): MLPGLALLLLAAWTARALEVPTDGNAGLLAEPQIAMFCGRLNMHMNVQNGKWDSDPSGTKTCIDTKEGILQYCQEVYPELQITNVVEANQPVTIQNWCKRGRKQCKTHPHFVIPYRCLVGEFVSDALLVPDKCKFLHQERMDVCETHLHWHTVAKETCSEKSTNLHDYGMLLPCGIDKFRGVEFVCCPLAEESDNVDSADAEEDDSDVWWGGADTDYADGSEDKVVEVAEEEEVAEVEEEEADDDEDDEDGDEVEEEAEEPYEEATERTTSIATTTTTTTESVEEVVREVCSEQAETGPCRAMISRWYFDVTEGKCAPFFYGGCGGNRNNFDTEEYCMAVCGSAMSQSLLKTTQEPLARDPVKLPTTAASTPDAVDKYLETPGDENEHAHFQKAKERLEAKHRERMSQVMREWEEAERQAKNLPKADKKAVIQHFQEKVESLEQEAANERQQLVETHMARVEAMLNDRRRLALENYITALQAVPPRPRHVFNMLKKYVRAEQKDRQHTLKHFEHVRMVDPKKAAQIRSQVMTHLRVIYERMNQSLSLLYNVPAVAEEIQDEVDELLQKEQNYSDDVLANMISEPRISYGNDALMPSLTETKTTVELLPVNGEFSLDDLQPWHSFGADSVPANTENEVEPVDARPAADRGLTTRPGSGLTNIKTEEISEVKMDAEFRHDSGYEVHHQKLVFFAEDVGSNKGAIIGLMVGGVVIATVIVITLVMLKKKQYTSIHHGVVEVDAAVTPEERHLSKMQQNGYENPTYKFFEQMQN
OBSERVABLE: Ki (nM)

CNc1ccc(-c2nc3cccc(O)c3s2)cc1 11.2
CNc1ccc(-c2nc3cc(O)ccc3s2)cc1 11.5

----------
tested on: Cerebellum; experiment: Biodistribution in NMRI mouse cerebellum at 37 MBq/mL, iv after 60 mins postinjection by gamma counting; format: ADME, organism-based; details: in vivo, 1 h
OBSERVABLE: Drug uptake (%ID)

Solved cases (2 shown):
COMPOUND	Drug uptake / %ID
[11CH3]Nc1ccc(-c2nc3cc(O)ccc3s2)cc1	0.01
CNc1ccc(-c2nc3ccc(O)cc3s2)cc1 [PITTSBURGH COMPOUND B UNLABELLED]	0

I = [11CH3]Nc1ccc(-c2nc3c(O)cccc3s2)cc1
II = [11CH3]Nc1ccc(-c2nc3cccc(O)c3s2)cc1
Incoming: Select the item whose Drug uptake value is smaller, choosing between I and II . Respond using the label that marks the chosen record.
Outgoing: I

----------
test system: Liver; assay: Biodistribution in NMRI mouse liver at 37 MBq/mL, iv after 60 mins postinjection by gamma counting; assay type: ADME, organism-based; conditions: in vivo, 1 h
OBSERVABLE: Drug uptake (%ID)

COMPOUND	STUDY_SYSTEM	UNITS_SYMBOL	Drug uptake
[11CH3]Nc1ccc(-c2nc3cccc(O)c3s2)cc1	Liver	%ID	7.1

A = [11CH3]Nc1ccc(-c2nc3c(O)cccc3s2)cc1
B = [11CH3]Nc1ccc(-c2nc3cc(O)ccc3s2)cc1
C = CNc1ccc(-c2nc3ccc(O)cc3s2)cc1 [PITTSBURGH COMPOUND B UNLABELLED]
Incoming: Ordering criterion: Drug uptake; begin with the maximum. Ranked list of labels, please, in the requested order.
Outgoing: C, A, B

----------
tested on: Intestine; experiment: Biodistribution in NMRI mouse intestine at 37 MBq/mL, iv after 2 mins postinjection by gamma counting; format: ADME, organism-based; conditions: in vivo
OBSERVABLE: Drug uptake (%ID)

COMPOUND	UNITS_SYMBOL	Drug uptake
[11CH3]Nc1ccc(-c2nc3c(O)cccc3s2)cc1	%ID	12
[11CH3]Nc1ccc(-c2nc3cccc(O)c3s2)cc1	%ID	9.4
[11CH3]Nc1ccc(-c2nc3cc(O)ccc3s2)cc1	%ID	12.9
CNc1ccc(-c2nc3ccc(O)cc3s2)cc1 [PITTSBURGH COMPOUND B UNLABELLED]	%ID	12

----------
tested on: Kidney; experiment: Biodistribution in NMRI mouse kidney at 37 MBq/mL, iv after 2 mins postinjection by gamma counting; format: ADME, organism-based; details: in vivo
OBSERVABLE: Drug uptake (%ID)

MOLECULE	UNITS_SYMBOL	Drug uptake
CNc1ccc(-c2nc3ccc(O)cc3s2)cc1 [PITTSBURGH COMPOUND B UNLABELLED]	%ID	10.3
[11CH3]Nc1ccc(-c2nc3cccc(O)c3s2)cc1	%ID	9
[11CH3]Nc1ccc(-c2nc3c(O)cccc3s2)cc1	%ID	10.6
[11CH3]Nc1ccc(-c2nc3cc(O)ccc3s2)cc1	%ID	8.1

----------
test: Biodistribution in NMRI mouse urine at 37 MBq/mL, iv after 60 mins postinjection by gamma counting; type: ADME, organism-based; conditions: in vivo, 1 h
OBSERVABLE: Drug uptake (%ID)

Solved cases (2 shown):
COMPOUND	Drug uptake (%ID)
CNc1ccc(-c2nc3ccc(O)cc3s2)cc1 [PITTSBURGH COMPOUND B UNLABELLED]	24.4
[11CH3]Nc1ccc(-c2nc3cccc(O)c3s2)cc1	24.8

P = [11CH3]Nc1ccc(-c2nc3c(O)cccc3s2)cc1
Q = [11CH3]Nc1ccc(-c2nc3cc(O)ccc3s2)cc1
Incoming: Select the item whose Drug uptake value is smaller, choosing between P and Q . Respond using the label that marks the chosen record.
Outgoing: Q
(Q: 14.6 %ID, P: 22.7 %ID)

----------
test system: Liver; experiment: Biodistribution in NMRI mouse liver at 37 MBq/mL, iv after 2 mins postinjection by gamma counting; assay type: ADME, organism-based; settings: in vivo
OBSERVABLE: Drug uptake (%ID)

Solved cases (2 shown):
COMPOUND	STUDY_SYSTEM	OBSERVABLE	VALUE_REPORTED
[11CH3]Nc1ccc(-c2nc3c(O)cccc3s2)cc1	Liver	Drug uptake	21.2
[11CH3]Nc1ccc(-c2nc3cc(O)ccc3s2)cc1	Liver	Drug uptake	25.8

a = [11CH3]Nc1ccc(-c2nc3cccc(O)c3s2)cc1
b = CNc1ccc(-c2nc3ccc(O)cc3s2)cc1 [PITTSBURGH COMPOUND B UNLABELLED]
Incoming: Between a and b , whose measured Drug uptake reads higher? Respond using the label that marks the chosen record.
Outgoing: a
(a: 27.8 %ID, b: 15.6 %ID)

----------
system: Intestine; assay: Biodistribution in NMRI mouse intestine at 37 MBq/mL, iv after 60 mins postinjection by gamma counting; format: ADME, organism-based; conditions: in vivo, 1 h
OBSERVABLE: Drug uptake (%ID)

MOLECULE	Drug uptake, %ID
CNc1ccc(-c2nc3ccc(O)cc3s2)cc1 [PITTSBURGH COMPOUND B UNLABELLED]	42.5
[11CH3]Nc1ccc(-c2nc3cccc(O)c3s2)cc1	54.7
[11CH3]Nc1ccc(-c2nc3cc(O)ccc3s2)cc1	73.7
[11CH3]Nc1ccc(-c2nc3c(O)cccc3s2)cc1	52.3

----------
tested on: Cerebellum; experiment: Biodistribution in NMRI mouse cerebellum at 37 MBq/mL, iv after 2 mins postinjection assessed per gram of tissue by gamma counting; format: ADME, organism-based; conditions: in vivo
OBSERVABLE: Drug uptake (% ID/g)

I = [11CH3]Nc1ccc(-c2nc3cc(O)ccc3s2)cc1
II = [11CH3]Nc1ccc(-c2nc3c(O)cccc3s2)cc1
Incoming: Between I and II , whose measured Drug uptake reads higher? Respond using the label that marks the chosen record.
Outgoing: I
(I: 4.4 % ID/g, II: 2.7 % ID/g)

I = CNc1ccc(-c2nc3ccc(O)cc3s2)cc1 [PITTSBURGH COMPOUND B UNLABELLED]
II = [11CH3]Nc1ccc(-c2nc3cccc(O)c3s2)cc1
Incoming: Select the item whose Drug uptake value is smaller, choosing between I and II . Respond using the label that marks the chosen record.
Outgoing: I

----------
assay: Biodistribution in NMRI mouse cerebrum at 37 MBq/mL, iv after 2 mins postinjection assessed per gram of tissue by gamma counting; format: ADME, organism-based; conditions: in vivo
OBSERVABLE: Drug uptake (% ID/g)

Solved cases (2 shown):
COMPOUND	Drug uptake / % ID/g
[11CH3]Nc1ccc(-c2nc3cc(O)ccc3s2)cc1	4.3
CNc1ccc(-c2nc3ccc(O)cc3s2)cc1 [PITTSBURGH COMPOUND B UNLABELLED]	3.6

1 = [11CH3]Nc1ccc(-c2nc3c(O)cccc3s2)cc1
2 = [11CH3]Nc1ccc(-c2nc3cccc(O)c3s2)cc1
Incoming: Between 1 and 2 , whose measured Drug uptake reads higher? Respond using the label that marks the chosen record.
Outgoing: 1
(1: 3.8 % ID/g, 2: 2.6 % ID/g)
